Catalogue of log10 IC50 values
# system-tested: Carbonic anhydrase 2 (Homo sapiens)
All values: base-10 log of IC50 in nM.

Examples with their reported log10 IC50 follow.
NCc1cc2cc(S(N)(=O)=O)sc2s1 :: 1.15
COCCOCCN(CCOC)C(Cc1ccc(F)cc1)c1cc2cc(S(N)(=O)=O)sc2s1 (configuration not stated) :: 0.06
C[S+]([O-])CCNC(=O)c1cc2cc(S(N)(=O)=O)sc2s1 (configuration not stated) :: 0.66

Recall the reported log10 IC50 of CNCc1cc2sc(S(N)(=O)=O)cc2s1.Cl when tested on Carbonic anhydrase 2 (Homo sapiens).
0.51

Recall the reported log10 IC50 of COCCNCc1cc2sc(S(N)(=O)=O)cc2s1.Cl when tested on Carbonic anhydrase 2 (Homo sapiens).
0.45

src = ChEMBL document CHEMBL1125927
